Below, each of the molecules is paired with its reported %Inh value.
# System: TAOK3
# measurement.context: concentration: 1 μM, replicates: in singlicate; n = 1;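 also: KINOMEscan kinase panel screen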
I only need the number, in %, no unit after it.

Examples with their reported %Inh follow.
molecule	target.desc	%Inh / %
O=c1cc(N2CCOCC2)nc2n(Cc3ccc(F)c(Cl)c3)ccn12 [GSK2297099]	TAOK3	0
O=C(Nc1ccc2c(c1)OCO2)NC1CCN(c2ccnc(NCc3ccc(F)cc3)n2)CC1 [GSK1379859]	TAOK3	2
Nc1nc(-c2ccccc2F)c(-c2ccnc3ccccc23)s1 [GW560459]	TAOK3	0
CCS(=O)(=O)c1ccc(OC)c(Nc2ncc(-c3ccc(F)cc3)o2)c1.Cl [GW591947]	TAOK3	0
Cc1nnc(-c2ccc(C)c(-c3ccc(C(=O)O)cc3)c2)o1 [GW608005]	TAOK3	2

Provide %Inh value for the following molecule: `COC(=O)c1c(-c2ccccc2)c2cc(Br)ccc2c(=O)n1Cc1ccc(NC(=O)CCC(=O)O)cc1` 0

Provide %Inh value for the following molecule: COc1cc(Nc2nccc(N3CCC(NC(=O)C4COc5ccccc5O4)C3)n2)cc(OC)c1OC (stereo not drawn) [GSK1379761] 5

Provide %Inh value for the following molecule: `COc1ccc(-c2cc3c(C)nc(N)nc3n([C@H]3CC[C@H](O)CC3)c2=O)cn1` 0

Provide %Inh value for the following molecule: Nc1ncnc2c1ncn2-c1cccc(F)c1 [SKF-97560] 0

----------
# Tested on: MARK2
# measurement.context: concentration: 1 μM, replicates: in singlicate; n = 1
measured.endpoint: %Inh

Fc1cccc(CSc2nnc(-c3ccc4c(c3)CCO4)o2)c1 20%
CN1C(=O)C(Nc2ccccc2)=C(c2ccccc2)C1=O 0%
Cc1nn2c(=O)cc(N3CCOCC3)nc2n1Cc1cccc(Cl)c1Cl 0%
CCC(=O)c1c(-c2ccccc2)c2cc(Cl)ccc2c(=O)n1Cc1cc(S(C)(=O)=O)n(CC(N)=O)n1 0%

Provide %Inh value for the following compound: `O=C(NCCNc1ccnc(Nc2ccc(F)cc2)n1)Nc1ccc2c(c1)OCO2` 0%

Provide %Inh value for the following compound: `Nc1n[nH]c2ncc(-c3ccccc3)cc12` 0%

Provide %Inh value for the following compound: `COc1cc2ncn(-c3cc(OCc4ccncc4)c(C(N)=O)s3)c2cc1OC` 0%

Provide %Inh value for the following compound: `COc1cc2ncn(-c3cc(OCc4ccc(S(C)(=O)=O)cc4)c(C(N)=O)s3)c2cc1OC` 10%

Provide %Inh value for the following compound: `O=c1cc(N2CCOCC2)nc2n(Cc3ccc(F)c(Cl)c3)ccn12` 0%

----------
# Tested on: NEK1
# measurement.context: concentration: 1 μM, replicates: in singlicate; n = 1
measured.endpoint: %Inh (%)
I only need the number, in %, no unit after it.

Examples with their reported %Inh follow.
molecule	measured.endpoint	readout.number
CN1C(=O)C(Nc2cc(Cl)c(O)c(Cl)c2)=C(c2ccc(Cl)cc2)C1=O [SB-404321]	%Inh	0
COc1ccc(CNC(=O)NC2CCN(c3ccnc(Nc4ccc(F)cc4)n3)C2)cc1 (stereo not shown) [GSK1379706]	%Inh	17
Nc1n[nH]c2nnc(-c3ccccc3)c(-c3ccccc3)c12 [GW554060]	%Inh	0
COc1cc(Nc2nccc(N3CCC(NC(=O)C4COc5ccccc5O4)C3)n2)cc(OC)c1OC (stereo not shown) [GSK1379761]	%Inh	39
Nc1ncnc2c1ncn2-c1ccc(Cl)cc1 [AH2635]	%Inh	0
Cl.NS(=O)(=O)c1cccc(Nc2cc(-c3ccc(F)cc3)n[nH]2)c1 [GW824645]	%Inh	0
Cc1cccc(-c2cc(-c3c[nH]nc3-c3ccccn3)ccn2)c1 [GW679395]	%Inh	0
Cl.c1ccc(Cn2cnc3cc(Nc4ncnc5ccccc45)ccc32)cc1 [GW272142]	%Inh	0

Provide %Inh value for the following molecule: COc1cc2ncn(-c3cc(OCc4ccncc4Br)c(C(N)=O)s3)c2cc1OC [GW854278] 0

Provide %Inh value for the following molecule: Nc1ncnc2c1ncn2-c1cccc(F)c1 [SKF-97560] 0

Provide %Inh value for the following molecule: O=C(Nc1n[nH]c2nc(-c3ccccc3)c(Br)cc12)C1CC1 [SB-708998] 0

Provide %Inh value for the following molecule: `CCCNC(=O)Nc1ccc(Oc2ncnc3ccn(C)c23)cc1` 0

Provide %Inh value for the following molecule: Nc1ncnc2c1ncn2-c1cccc2ccccc12 [SKF-97184] 11

Provide %Inh value for the following molecule: CCS(=O)c1ccc(-c2coc3ccc(-c4nnc(C)o4)cc23)cc1 (stereo not shown) 0

Provide %Inh value for the following molecule: Nc1nccc2scc(-c3ccc4c(c3)CCN4C(=O)Cc3ccccc3)c12 [GSK2576924] 0

Provide %Inh value for the following molecule: Cc1cccc(-c2nc(Nc3ccc4c(cnn4C)c3)c3ccccc3n2)n1 [GW876731] 0

Provide %Inh value for the following molecule: Cc1nn2c(=O)cc(N3CCOCC3)nc2n1Cc1cccc(Cl)c1Cl [GSK2342769] 0

Provide %Inh value for the following molecule: CCn1c(-c2ccoc2)nc2cnccc21 [SB-733887] 2

Provide %Inh value for the following molecule: `COC(=O)c1c(-c2ccccc2)c2cc(Br)ccc2c(=O)n1Cc1ccc(NC(=O)CCC(=O)O)cc1` 0
